Source listed as PubChem BioAssay AID1159580.

# test_name: chemical genetic growth profiling, strain panel (AID 1159580);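 further: tested at 20 µM; growth read once vehicle control cultures reached saturation at 30 °C; 1 = growth at the plate median or of vehicle wells; lower values mean less growth of the strain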
# condition_label: S. cerevisiae deletion strains, growth OD, locus YOR083W, strain WHI5, hits give low values
Hit rate of the full screen: of about 5,500 compounds, about 2,000 (36%) were called active. About 18% were inconclusive and are not listed. The list shows a part of the results.
normalized growth for assorted compounds

Value of measured normalized growth for the entry CC(C(=O)O)c1cccc(C(=O)c2ccccc2)c1 (centres undefined) : 0.918 (inactive)

Value of measured normalized growth for the entry "CCOC(=O)CCC(=O)O[C@H]1[C@H](O[C@@H]2[C@@H](C)[C@H](O[C@H]3C[C@@](C)(OC)[C@@H](O)[C@H](C)O3)[C@@H](C)C(=O)O[C@H](CC)[C@@](C)(O)[C@H](O)[C@@H](C)C(=O)[C@H](C)C[C@@]2(C)O)O[C@H](C)C[C@@H]1N(C)C" : 1.02 (inactive)

Value of measured normalized growth for the entry "COc1cc2c(cc1OC)[C@@H]1C(=O)c3ccc(OC)c(CC=C(C)C)c3O[C@@H]1CO2" : 1.02 (inactive)

Value of measured normalized growth for the entry "COc1cc2c(cc1OC)[C@@H]1C(=O)c3ccc4c(c3O[C@@H]1CO2)C=CC(C)(C)O4" : 0.943 (inactive)

* * *

normalized growth for assorted molecules
# test_name: chemical genetic growth profiling, strain panel (AID 1159580);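 further: tested at 20 µM; growth read once vehicle control cultures reached saturation at 30 °C; 1 = growth at the plate median or of vehicle wells; lower values mean less growth of the strain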
# condition_label: S. cerevisiae deletion strains, growth OD, locus YCL011C, strain gbp2, hits give low values
Hit rate of the full screen: of about 5,500 compounds, about 2,000 (36%) were called active. Roughly 18% stayed inconclusive and do not appear here. The list shows a part of the results.
Give the figure by itself; no unit, no explanation.

Some molecules with known normalized growth results, for comparison:
Value of measured normalized growth for the entry "Cc1[nH]c(C)c(Cl)c(=O)c1Cl" : 1.01

Value of measured normalized growth for the entry CC(C(=O)O)c1ccc(-c2ccccc2)c(F)c1 (configuration not stated) : 1

Value of measured normalized growth for the entry "COC1=C(OC)C(=O)C(C/C=C(\C)CC/C=C(\C)CC/C=C(\C)CC/C=C(/C)CC/C=C(\C)CC/C=C(\C)CC/C=C(\C)CC/C=C(\C)CC/C=C(\C)CCC=C(C)C)=C(C)C1=O" : 0.96

Value of measured normalized growth for the entry "CC(=O)OC(C)(C)[C@@H]1Cc2cc3ccc(=O)oc3cc2O1" : 0.954

Value of measured normalized growth for the entry C[C@H]1CC2C([C@@H](O)C[C@@]3(C)C2CC[C@]3(O)C(=O)CO)[C@@]2(C)C=CC(=O)C=C12 (some centres not stated) : 1.03

Value of measured normalized growth for the entry "CC1=C(C/C=C(\C)CCC[C@H](C)CCC[C@H](C)CCCC(C)C)C(=O)c2ccccc2C1=O" : 0.977

Value of measured normalized growth for the entry "COc1ccc2c(C)cc(=O)oc2c1" : 0.999

Value of measured normalized growth for the entry "CC(C)OC(=O)C(C)(C)Oc1ccc(C(=O)c2ccc(Cl)cc2)cc1" : 0.954

New cases:
Value of measured normalized growth for the entry COc1cc(NC(C)CCCN)c2ncccc2c1 (configuration not stated) : 1.01

Value of measured normalized growth for the entry "c1ccc(N=Nc2ccccc2)cc1" : 0.992

Value of measured normalized growth for the entry CC1=C(C(C)O)C2=NC1C=c1[nH]c(c(C)c1C(C)O)=Cc1[nH]c(c(CCC(=O)O)c1C)C=c1[nH]c(c(C)c1CCC(=O)O)=C2 (configuration not stated) : 0.994

Value of measured normalized growth for the entry C=Cc1c2[nH]c(c1C)C=c1[nH]c(c(C)c1C=C)=CC1N=C(C=c3[nH]c(c(C)c3CCC(=O)O)=C2)C(CCC(=O)O)=C1C (configuration not stated) : 1.05
